Where do the numbers come from? From patent US20240409585A1.

Consider the following compounds and their measured IC50 readings.
ASSAYED_SYSTEM: PE-labeled human PD-L1-Ig binding to Jurkat cell line over-expressing human PD-1 (Jurkat-PD-1) (Homo sapiens)
Construct: expressed in transfected cells; host or cells: Jurkat
Sequence (Q15116 25-288): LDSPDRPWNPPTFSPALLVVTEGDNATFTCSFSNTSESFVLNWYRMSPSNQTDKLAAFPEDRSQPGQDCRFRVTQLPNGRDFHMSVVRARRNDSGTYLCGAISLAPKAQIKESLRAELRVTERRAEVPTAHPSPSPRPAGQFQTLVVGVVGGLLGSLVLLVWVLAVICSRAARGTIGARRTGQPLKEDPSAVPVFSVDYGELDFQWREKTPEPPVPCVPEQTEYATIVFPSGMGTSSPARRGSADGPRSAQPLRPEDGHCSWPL
EXPERIMENTAL_PROTOCOL: Jurkat-PD-1 Cell Binding High-Content Screening Assay (CBA): Method 1
CONDITION_LABEL: Jurkat-hPD-1 cells, PE-labeled PD-L1-Ig 20 nM final; read-out: Jurkat HPDL1 PD1 IC50 (uM) (Method 1)
Bridge positions count the residues as written; N and C are the ends. Square brackets hold non-standard residues; d marks the D form. Peptide text beside a SMILES is read from it. Bip = N[C@@H](Cc1ccc(-c2ccccc2)cc1)C(=O)O; NMeA = CN[C@@H](C)C(=O)O; Dab = NCC[C@H](N)C(=O)O
Response body: numeric value in µM, unit text excluded.

>>> observed_value("CC(C)C[C@@H]1NC(=O)[C@H](CCN)NC(=O)[C@@H](CC(C)C)NC(=O)[C@H](C)N(C)C(=O)[C@H](CCCNC(=N)N)NC(=O)[C@H](Cc2ccc(-c3ccccc3)cc2)NC(=O)[C@H](C(C)C)NC(=O)[C@H](Cc2c[nH]c3ccccc23)NC(=O)[C@H](CC(=O)O)NC(=O)[C@H](Cc2ccc(O)cc2)NC(=O)[C@H](CC(N)=O)NC(=O)CSC[C@@H](C(=O)NCC(N)=O)NC(=O)[C@H]([C@@H](C)O)NC(=O)[C@H](C(C)C)NC1=O [Compound 1249] ({CH2CO}-NYDWV[Bip]R[NMeA][dL][Dab]LVTCG-NH2; thioether N-14)")
0.06

As a next step, examine the compound that follows.
Lab note: CC(C)C[C@@H]1NC(=O)[C@H](CCN)NC(=O)[C@@H](CC(C)C)NC(=O)[C@H](C)N(C)C(=O)CNC(=O)[C@H](Cc2ccc(-c3ccccc3)cc2)NC(=O)[C@H](C(C)C)NC(=O)[C@H](Cc2c[nH]c3ccccc23)NC(=O)[C@H](CC(=O)O)NC(=O)[C@H](Cc2ccc(O)cc2)NC(=O)[C@H](CC(N)=O)NC(=O)CSC[C@@H](C(=O)N[C@@H](C)C(N)=O)NC(=O)[C@H]([C@@H](C)O)NC(=O)[C@H](C(C)C)NC1=O [Compound 1281] ({CH2CO}-NYDWV[Bip]G[NMeA][dL][Dab]LVTCA-NH2; thioether N-14) gave IC50 of 0.33
